# assay procedure: Phase 2 toxicokinetics of brincidofovir and cidofovir in plasma
# Assay type: in vivo, Sprague-Dawley CD rats
# test settings: male, Sprague-Dawley CD, rat, plasma, intravenous, 1 mg/kg, plasma; brincidofovir 1 mg/kg 2-h IV infusion; male rats; Day 1; 1 h; BLQ imputed as zero; read-out: Imputed Concentration, Mean
measured parameter: concentration at 1 h (ng/mL)

INSERT INTO assay_data (chemical_string, measured_parameter, value_measured) VALUES
  ('Nc1ccn(C[C@@H](CO)OCP(=O)(O)O)c(=O)n1', 'concentration at 1 h', 0),
  ('CCCCCCCCCCCCCCCCOCCCOP(=O)(O)CO[C@H](CO)Cn1ccc(N)nc1=O', 'concentration at 1 h', 227);

* * *

# assay procedure: Phase 2 toxicokinetics of brincidofovir and cidofovir in plasma
# Type: in vivo, Sprague-Dawley CD rats
# test settings: male, Sprague-Dawley CD, rat, plasma, intravenous, 1 mg/kg, plasma; brincidofovir 1 mg/kg 2-h IV infusion; male rats; Day 1; 2 h; BLQ imputed as zero; read-out: Imputed Concentration, individual animals
The compounds listed here are annotated with their concentration at 2 h.
measured parameter: concentration at 2 h (ng/mL)

INSERT INTO assay_data (chemical_string, value_measured) VALUES
  ('CCCCCCCCCCCCCCCCOCCCOP(=O)(O)CO[C@H](CO)Cn1ccc(N)nc1=O', 220),
  ('Nc1ccn(C[C@@H](CO)OCP(=O)(O)O)c(=O)n1', 0);

* * *

# assay procedure: Phase 2 toxicokinetics of brincidofovir and cidofovir in plasma
# Format: in vivo, Sprague-Dawley CD rats
# test settings: female, Sprague-Dawley CD, rat, plasma, intravenous, 1 mg/kg, brincidofovir 1 mg/kg, Female, Day 1, 24 h; read-out: brincidofovir Mean Concentration (MC)
measured parameter: concentration at 24 h (ng/mL)

INSERT INTO results (compound, measured_parameter, value_measured) VALUES
  ('CCCCCCCCCCCCCCCCOCCCOP(=O)(O)CO[C@H](CO)Cn1ccc(N)nc1=O [Brincidofovir]', 'concentration at 24 h', 0);

* * *

# assay procedure: 28-day study toxicokinetics of brincidofovir and CDV in plasma
# Type: in vivo, Sprague-Dawley CD rats
# test settings: both sexes, Sprague-Dawley CD, rat, in vivo, 15 mg/kg, plasma brincidofovir; Day 1; 15 mg/kg; combined male and female; Median; read-out: Clast
measured parameter: concentration at 8 h

INSERT INTO measurements (chemical_string, value_measured) VALUES
  ('CCCCCCCCCCCCCCCCOCCCOP(=O)(O)CO[C@H](CO)Cn1ccc(N)nc1=O', '10.3 ng/mL');

* * *

# assay procedure: Phase 2 toxicokinetics of brincidofovir and cidofovir in plasma
# Assay type: in vivo, Sprague-Dawley CD rats
# test settings: Sprague-Dawley CD, rat, plasma, iv, 1 mg/kg, single and twice weekly 1 mg/kg; read-out: Median Tmax
measured parameter: Tmax (h)

INSERT INTO assay_data (chemical_string, measured_parameter, value_measured) VALUES
  ('CCCCCCCCCCCCCCCCOCCCOP(=O)(O)CO[C@H](CO)Cn1ccc(N)nc1=O', 'Tmax', 2);

* * *

# assay procedure: Phase 2 toxicokinetics of brincidofovir and cidofovir in plasma
# Type: in vivo, Sprague-Dawley CD rats
# test settings: female, Sprague-Dawley CD, rat, plasma, intravenous, 1 mg/kg, brincidofovir 1 mg/kg, Female, Day 7, 0 h; read-out: brincidofovir Imputed Mean Concentration (IMC)
measured parameter: concentration at 0 h (ng/mL)

INSERT INTO assay_data (chemical_string, value_measured) VALUES
  ('CCCCCCCCCCCCCCCCOCCCOP(=O)(O)CO[C@H](CO)Cn1ccc(N)nc1=O', 0);

Data origin, for the record: patent US20170368082A1
